Consider the following variants and their measured self-cleavage kobs at 2500 uM GlcN6P readings.
B1: glmS ribozyme (parent)
chain: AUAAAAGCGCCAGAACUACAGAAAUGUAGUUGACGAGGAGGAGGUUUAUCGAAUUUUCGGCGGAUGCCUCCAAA

variants of: B1; assay: self-cleavage kobs at 2500 uM GlcN6P; higher = faster cleavage; RNA array; conditions: with glucosamine-6-phosphate
Fewer inactive variants are shown than the library holds.
assay-endpoint: self-cleavage kobs at 2500 uM GlcN6P (s⁻¹)

- AUAAAAGCGCCAGAACUACAGAAAUGUAGUUGACGAGGAGAAGGUUUAGCGAAUUUUCGGCGGAUGCCUCCAAA [G41A U49G]: 3.9e-05
- AUAAAAGCGCCAUAACUACAGAAAUGUAGUAGACGAGGAGGAGGUUUAUCGAAUUUUCGGCGGAUGCCUCCAAA [G13U U31A]: 0.000216
- AUAAAAGCGCCAGAAUUACAGAAAUGUAGUUGACGAGGAGGAGGUUUAUCGAAUUUUCGGCGGAUGCCUCUAAA [C16U C71U]: 0.0356
- AUAAAAGCGCCAGAACUACAGAAAUGUAGUUGACGAGGGGUAGGUUUAUCGAAUUUUCGGCGGAUGCCUCCAAA [A39G G41U]: 0.000965
- AUAAAAGCGCCAGACCUACAGAAAUGUAGUUGACGAGGAGGAGGUUUAUCGAACUUUCGGCGGAUGCCUCCAAA [A15C U54C]: 0.00384
- AUAAAAGCGCCAGAACUACAGAAAUGUAGGUGACGAGGUGGAGGGUUAUCGAAUUUUCGGCGGAUGCCUCCAAA [U30G A39U U45G]: 0.00055
- AUAAAAGCGCCUGAUCUACAGAAAUGUAGUUGACGAGGAGGGGGUUUAUCGAAUUUUCGGCGGAUGCCUCCAAA [A12U A15U A42G]: 0.00849
- AUAAAAGCGCCAGAACUACAGAAAUGUAGUAGACGAGGAGGAGGUUUAUCGAAUGUUCGGCGGAUGCCUCCAAA [U31A U55G]: 0.00546
- AUAAAAGCGCCAGAACUACAGAAAUGUAGCUGACGAGGAGGAGGUUUAUCGAAUUUUGGGCGGAUGCUUCCAAA [U30C C58G C68U]: 0.000104
- AUAAAAGCGCCAGAACUACAGAAAUGUAGUUGACGAGGACGAGGUUUAUCGAAUUUUCGGCGGAUGCCCCCAAA [G40C U69C]: 5.5e-05
- AUAAAAGCGCCAGAACUACAGAAAUGUAGUUGACGAGGAGGAGGCUUAUCGACUUUUCGGCGGAUGUCUCCAAA [U45C A53C C67U]: 6.03e-05
- AUAAAAGCGCCAGAACUACAGAAAUGUACUUUACGAGGAGGAGGUUUAUCGAAUUUUCGGCGGAUGCCUCCAAA [G29C G32U]: 0.000226
- AUAAAAGCGCCAGAGCUACAGAAAUGUAGUUGACGAGGAGGAGGUUGAUCGAAUAUUCGGCGGAUGCCUCCAAA [A15G U47G U55A]: 0.00474
- AUAAAAGCGCCGGAACUACAGAAAUGUAGUUGACGAGGAGUAGGUUUAUCGAAUUUUCGGCGGAUGCCUCCAAA [A12G G41U]: 0.000147
- AUAAAAGCGCCAGAACUACAGAAAUGUAGUUGACGAGGAGGAGUUUUAUCGAAUUUUCGGCGGAGGCCUCCAAA [G44U U65G]: 5.71e-05
- AUAAAAGCGCCAGAACUACAGAAAUGUAGUUGACGAGGAGGUGGUUUAUCGAAUUUUCGGCGGAUGCCUACAAA [A42U C70A]: 9.98e-05
- AUAAAAGCGCCAGAACUACAGAAAUGUAGUUGACGAGGUGGAGGUUUAUCGAAUAUUCGGCGGAUGCCUCCAAA [A39U U55A]: 0.0142
- AUAAAAGCGCCAGAACUACAGAAAUGUAGUGGACGAGGAGGAGGUUUAUCGAAUUUUCGGCGGAUGCCUCCGAA [U31G A72G]: 0.00235
- AUAAAAGCGCCAGAACUACAGAAAUGUAGUUGACGAAGAGGAGGUUUAUCGAAUUUUCGGCGGGUGCCUCCAAA [G37A A64G]: 0.000977
- AUAAAAGCGCCAGCACUACAGAAAUGUAGUUAACGAGGAGGAGGUUUAUCGAAUUUUCGGCGGAUGCCUCCAAA [A14C G32A]: 0.00183
- AUAAAAGCGCCAGAACUACAGAAAUGUAGUUGACGAGGAGGAGGUUUAUCGAAUUUACGGCGGAUGACUCAAAA [U57A C67A C71A]: 0.000181
- AUAAAAGCGCCAGAACUACAGAAAUGUAGUGGACGAGGAGGAGGUUUAUCGAAUUGUCGGCGGAUGUCUCCAAA [U31G U56G C67U]: 0.000493
- AUAAAAGCGCCCGCACUACAGAAAUGUAGUGGACGAGGAGGAGGUUUAUCGAAUUUUCGGCGGAUGCCUCCAAA [A12C A14C U31G]: 0.00423
- AUAAAAGCGCCAGAACUACAGAAAUGUAUUUGACGAGGAGGAGGUUUAUCGAAAUUUAGGCGGAUGCCUCCAAA [G29U U54A C58A]: 0.000128
- AUAAAAGCGCCAGAACUACAGAAAUGUAGUUAACGAGGAGGAGGUUUAUCGAAUUUUCGGCGGGUGCCUCCAAA [G32A A64G]: 0.00144
- AUAAAAGCGCCAGAACUACAGAAAUGUAGUUGACGAGGAGUAGGCUUAUCGAAUUUUCGGCGGAUGCCUCCAAA [G41U U45C]: 0.000273
- AUAAAAGCGCCAGAACUACAGAAAUGUAGUUGACGAGGAGGAGGUUUAUAGAAUUUUCGGCGGAUGCCCCCAAA [C50A U69C]: 6.67e-05
- AUAAAAGCGCCAGAACUACAGAAAUGUAGUUGACGAGGAUGAGGUUUAUCGAAUUUUCGGCGGAUGCCUUCAAA [G40U C70U]: 0.00132
- AUAAAAGCGCCAGAAGUACAGAAAUGUAGAUGACGAGGAGGAGGUUUAUCGAAUUUUCGGCGGAUGCCUCUAAA [C16G U30A C71U]: 0.000103
- AUAAAAGCGCCAGCGUUACAGAAAUGUAGUUGACGAGGAGGAGGUUUAUCGAAUUUUCGGCGGAUGCCUCCAAA [A14C A15G C16U]: 4.99e-05
- AUAAAAGAGCCAGAACUACAGAAAUGUAGUUGACGAGGAGGAGGUUUAUGGAAUUUUCGGCGGAUGCCUCCAAA [C8A C50G]: 9.84e-05
- AUAAAAGCGCCAGGACUACAGAAAUGUAGUUGACGAGGAGGGGGUUUAUCGAAUUUUCGGCGGAUGCCUCCAAA [A14G A42G]: 0.0467
- AUAAAAGCGCCAGAACUACAGAAAUGUAGUUGACGAGGAGGAGGUUUAUCGACUUUUCGGCGGAAGCCUCCAAA [A53C U65A]: 0.00025
- AUAAAAGCGCCAGACCUACAGAAAUGUAGUUGACGAGGAGGAGGUUUAUCGAAUUUACGGCGGAUGGCUCCAAA [A15C U57A C67G]: 5.01e-05
- AUAAAAGCGCCAGAACUACAGAAAUGUAGUUGACGAGGAGGAGGUAUAUCGAAUUUUCGGCGGAUGUCUCCAAA [U46A C67U]: 0.00173
- AUAAAAGCGCUAGAAUUACAGAAAUGUAGUUGACGAGGAGGAGGUUUAUCGAAUUUUCGGCGGAUGCCUCCAAA [C11U C16U]: 0.00134
- AUAAAAGCGCCAGAGCUACAGAAAUGUAGUUGACGAGGAGGAGGUUGAUCGAAUUUUCGGCGGAUGCGUCCAAA [A15G U47G C68G]: 3e-05
- AUAAAAGCGCCAGAACUACAGAAAUGUAGUUGACGAGGAGGAGGUUUAUCGUAUUUUCGGCGGAUGCUUCCAAA [A52U C68U]: 0.000158
- AUAAAAGCGCCAGAACUACAGAAAUGUAUUUGACGAGGAGGAGGUUUAUCGAAUUUUCGGCGGAUGCUUCCAAA [G29U C68U]: 0.000435
- AUAAAAGCGCCAGAACUACAGAAAUGUAGUCGACGAGGAGGAGGUUUAUCGAAUUUUCGGCGGAUGCCUUCAAA [U31C C70U]: 0.00284
- AUAAAAGCGCGAGAACUACAGAAAUGUAGUUGACGAGGAGGAGGUUUAUCGAAUUUUCGGAGGAUGCAUCCAAA [C11G C61A C68A]: 8.83e-05
- AUAAAAGCGCCGUAACUACAGAAAUGUAGUUGACGAGGAGGAGGUUUAUCUAAUUUUCGGCGUAUGCCUACAAA [A12G G13U G51U G63U C70A]: 0.000271
- AUAAAAGCGCCAUAACUACAGAAAUGUAGUUGACGAGGAGGAGGUUUAUCGAAUUGUCGGCGGAUGCCUGCAAA [G13U U56G C70G]: 4.09e-05
- AUAAAAGCGCCAGAACUACAGAAAUGUAGUUGACGAGGAGCAGGUUUAUCGAAUUUUCGGCGGAUGCCUCGAAA [G41C C71G]: 6.12e-05
- AUAAAAGCGCCAGAACUACAGAAAUGUAGUUGACGAGGUGGAGGUUUAUCGAAUUUUCGGCGGGUGCCUCCAAA [A39U A64G]: 0.0101
- AUAAAAGCGCCAGAACUACAGAAAUGUAGUUGACGAGGAAAAGGUUUAUCGAAUGUUCGGCGGAUGCCUCCAAA [G40A G41A U55G]: 7.85e-05
- AUAAAAGCGCUAGAACUACAGAAAUGUAGUUGACGAGGAGGAGGUUUAUCGUAUUUUCGGCGGAUGCCUCCAAA [C11U A52U]: 3.57e-05
- AUAAAAGCGCCAGAACUACAGAAAUGUAGUUGACGAAGAGGGGGUUUAUCGAAUUUUCGGCGGAUGCCUCCAAA [G37A A42G]: 0.00251
- AUAAAAGCGCCAGAACUACAGAAAUGUAGUUGACGAGGAGGAGGUUUAUCGAAUUUUAGGCGGAUGCCUCUAAA [C58A C71U]: 0.000183
- AUAAAAGCGCCAGACCUACAGAAAUGUAGUUGACGAGGAGGAGGUUUAUCGAAUUUUCGGCGGAUGCCCCCAAA [A15C U69C]: 0.000165
- AUAAAAGCGCCAGAACUACAGAAAUGUAGUUGACGAGGAGGAGGUUUAUCGAAUUUUCGGCGGAUGACUCUAAA [C67A C71U]: 0.000679

This collection of values is drawn from the supplement of paper PMC7125110.
